These compounds were tested on Mitogen-activated protein kinase kinase kinase kinase 5 (Homo sapiens, UniProt Q9Y4K4); Kd is the recorded read-out. Note: in the data inactive means no Kd found up to 30 µM.
Sequence (Q9Y4K4 whole entry): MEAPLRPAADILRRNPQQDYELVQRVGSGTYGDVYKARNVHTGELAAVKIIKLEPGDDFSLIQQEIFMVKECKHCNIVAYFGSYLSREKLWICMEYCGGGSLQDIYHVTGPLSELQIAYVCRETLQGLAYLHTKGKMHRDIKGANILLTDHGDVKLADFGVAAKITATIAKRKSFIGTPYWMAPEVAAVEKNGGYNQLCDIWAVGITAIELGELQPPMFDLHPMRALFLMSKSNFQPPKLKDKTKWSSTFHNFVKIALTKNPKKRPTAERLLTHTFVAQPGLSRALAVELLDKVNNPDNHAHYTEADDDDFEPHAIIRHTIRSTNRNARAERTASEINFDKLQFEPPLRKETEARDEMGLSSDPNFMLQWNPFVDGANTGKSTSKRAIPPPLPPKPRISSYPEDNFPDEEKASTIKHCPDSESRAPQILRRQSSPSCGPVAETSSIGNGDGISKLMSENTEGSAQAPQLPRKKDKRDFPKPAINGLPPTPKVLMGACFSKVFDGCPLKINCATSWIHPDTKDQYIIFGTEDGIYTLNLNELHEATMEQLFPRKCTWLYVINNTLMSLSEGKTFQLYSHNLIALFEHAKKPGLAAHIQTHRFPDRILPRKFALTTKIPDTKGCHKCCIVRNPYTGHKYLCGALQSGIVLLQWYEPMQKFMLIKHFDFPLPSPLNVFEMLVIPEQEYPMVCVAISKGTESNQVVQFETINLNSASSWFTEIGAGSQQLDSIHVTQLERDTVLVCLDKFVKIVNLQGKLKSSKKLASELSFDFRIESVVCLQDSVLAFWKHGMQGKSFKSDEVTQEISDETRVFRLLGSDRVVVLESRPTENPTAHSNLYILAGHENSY
Active and inactive are the calls of the source.

A selection of reference data follows.
// query Find the measured Kd: item "COc1cc2c(Nc3ccc(Cl)c(Cl)c3F)ncnc2cc1OC[C@@H]1C[C@@H]2CN(C)C[C@@H]2C1" , target or system Mitogen-activated protein kinase kinase kinase kinase 5 (Homo sapiens, UniProt Q9Y4K4). Note: in the data inactive means no Kd found up to 30 µM.
// result 0.908 µM (active)

// query Find the measured Kd: item "CC(=O)c1cnc2ccc(-c3cc(Cl)c(O)c(Cl)c3)nc2c1N[C@H]1CC[C@H](CN(C)C)CC1" , target or system Mitogen-activated protein kinase kinase kinase kinase 5 (Homo sapiens, UniProt Q9Y4K4). Note: in the data inactive means no Kd found up to 30 µM.
// result 0.071 µM (active)

// query Find the measured Kd: item "NC1(c2ccc(-c3nc4ccn5c(=O)[nH]nc5c4cc3-c3ccccc3)cc2)CCC1" , target or system Mitogen-activated protein kinase kinase kinase kinase 5 (Homo sapiens, UniProt Q9Y4K4). Note: in the data inactive means no Kd found up to 30 µM.
// result > 30 µM (inactive)

// query Find the measured Kd: item "COc1ccc(S(=O)(=O)N(C(C)=O)c2ccccc2/C=C/c2cc[n+]([O-])cc2)cc1" , target or system Mitogen-activated protein kinase kinase kinase kinase 5 (Homo sapiens, UniProt Q9Y4K4). Note: in the data inactive means no Kd found up to 30 µM.
// result > 30 µM (inactive)

Further cases:
// query Find the measured Kd: item C=CC(=O)Nc1cc2c(Nc3ccc(F)c(Cl)c3)ncnc2cc1C#CC(C)(C)N1CCN(C)CC1 [AV-412 FREE BASE] , target or system Mitogen-activated protein kinase kinase kinase kinase 5 (Homo sapiens, UniProt Q9Y4K4). Note: in the data inactive means no Kd found up to 30 µM.
// result > 30 µM (inactive)

// query Find the measured Kd: item "FC(F)(F)c1ccc(/C=C/c2nc(COc3ccc(CCCCn4ccnn4)cc3)co2)cc1" , target or system Mitogen-activated protein kinase kinase kinase kinase 5 (Homo sapiens, UniProt Q9Y4K4). Note: in the data inactive means no Kd found up to 30 µM.
// result > 30 µM (inactive)

// query Find the measured Kd: item "CCCCCCCCCCCCCCCCCCOP(=O)([O-])OC1CC[N+](C)(C)CC1" , target or system Mitogen-activated protein kinase kinase kinase kinase 5 (Homo sapiens, UniProt Q9Y4K4). Note: in the data inactive means no Kd found up to 30 µM.
// result > 30 µM (inactive)

// query Find the measured Kd: item "O=C(Nc1cc(C(F)(F)F)cc(C(F)(F)F)c1)c1cc(Cl)ccc1O" , target or system Mitogen-activated protein kinase kinase kinase kinase 5 (Homo sapiens, UniProt Q9Y4K4). Note: in the data inactive means no Kd found up to 30 µM.
// result 1.46 µM (active)

----------
# EXPERIMENTAL_TARGET: Mitogen-activated protein kinase 14 (Homo sapiens, UniProt Q16539); note: in the data inactive means no Kd found up to 30 µM
# Sequence (Q16539 whole entry): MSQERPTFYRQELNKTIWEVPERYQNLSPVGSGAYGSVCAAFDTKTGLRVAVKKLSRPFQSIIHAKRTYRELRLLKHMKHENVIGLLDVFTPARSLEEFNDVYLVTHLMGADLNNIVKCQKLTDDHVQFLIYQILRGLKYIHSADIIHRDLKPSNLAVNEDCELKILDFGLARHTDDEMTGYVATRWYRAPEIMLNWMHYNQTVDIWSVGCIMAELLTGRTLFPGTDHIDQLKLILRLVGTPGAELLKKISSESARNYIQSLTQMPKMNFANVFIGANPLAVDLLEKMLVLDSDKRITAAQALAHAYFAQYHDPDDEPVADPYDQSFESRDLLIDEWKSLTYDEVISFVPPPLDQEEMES
Active and inactive are the calls of the source.
Answer with one of the outcomes given here: active, inactive

Consider the worked cases shown below.
// query Dear colleague, could you share the recorded outcome for "O=C(Nc1nc2cccc(-c3ccc(CN4CCS(=O)(=O)CC4)cc3)n2n1)C1CC1" when you have a moment?
// result inactive

// query Dear colleague, could you share the recorded outcome for "Cc1nc2cc(-c3nn(C(C)C)c4ncnc(N)c34)ccc2o1" when you have a moment?
// result inactive

// query Dear colleague, could you share the recorded outcome for "COc1ncc(-c2ccc3nccc(-c4ccnnc4)c3c2)cc1NS(=O)(=O)c1ccc(F)cc1F" when you have a moment?
// result inactive

// query Dear colleague, could you share the recorded outcome for "Cc1cc(Nc2ncc(Cl)c(Nc3ccccc3S(=O)(=O)C(C)C)n2)c(OC(C)C)cc1C1CCNCC1" when you have a moment?
// result inactive

// query Dear colleague, could you share the recorded outcome for "CNC(=O)c1nn(C)c2c1C(C)(C)Cc1cnc(Nc3ccc(N4CCN(C)CC4)cc3)nc1-2" when you have a moment?
// result inactive

// query Dear colleague, could you share the recorded outcome for "Cn1cc(-c2cnc3ccc4ccc(CS(=O)(=O)NCc5ccccn5)cc4c(=O)c3c2)cn1" when you have a moment?
// result inactive

// query Dear colleague, could you share the recorded outcome for "C[C@@H](NC(=O)c1ncnc(N)c1Cl)c1ncc(C(=O)Nc2cc(C(F)(F)F)c(Cl)cn2)s1" when you have a moment?
// result active

Now let's try a different one.
// query Dear colleague, could you share the recorded outcome for "COc1cc2ncnc(Oc3cccc(NC(=O)Nc4cc(C(C)(C)C(F)(F)F)on4)c3)c2cc1OC" when you have a moment?
// result active

----------
# EXPERIMENTAL_TARGET: Ephrin type-B receptor 6 (Homo sapiens); note: in the data inactive means no Kd found up to 30 µM
# Sequence (O15197 whole entry): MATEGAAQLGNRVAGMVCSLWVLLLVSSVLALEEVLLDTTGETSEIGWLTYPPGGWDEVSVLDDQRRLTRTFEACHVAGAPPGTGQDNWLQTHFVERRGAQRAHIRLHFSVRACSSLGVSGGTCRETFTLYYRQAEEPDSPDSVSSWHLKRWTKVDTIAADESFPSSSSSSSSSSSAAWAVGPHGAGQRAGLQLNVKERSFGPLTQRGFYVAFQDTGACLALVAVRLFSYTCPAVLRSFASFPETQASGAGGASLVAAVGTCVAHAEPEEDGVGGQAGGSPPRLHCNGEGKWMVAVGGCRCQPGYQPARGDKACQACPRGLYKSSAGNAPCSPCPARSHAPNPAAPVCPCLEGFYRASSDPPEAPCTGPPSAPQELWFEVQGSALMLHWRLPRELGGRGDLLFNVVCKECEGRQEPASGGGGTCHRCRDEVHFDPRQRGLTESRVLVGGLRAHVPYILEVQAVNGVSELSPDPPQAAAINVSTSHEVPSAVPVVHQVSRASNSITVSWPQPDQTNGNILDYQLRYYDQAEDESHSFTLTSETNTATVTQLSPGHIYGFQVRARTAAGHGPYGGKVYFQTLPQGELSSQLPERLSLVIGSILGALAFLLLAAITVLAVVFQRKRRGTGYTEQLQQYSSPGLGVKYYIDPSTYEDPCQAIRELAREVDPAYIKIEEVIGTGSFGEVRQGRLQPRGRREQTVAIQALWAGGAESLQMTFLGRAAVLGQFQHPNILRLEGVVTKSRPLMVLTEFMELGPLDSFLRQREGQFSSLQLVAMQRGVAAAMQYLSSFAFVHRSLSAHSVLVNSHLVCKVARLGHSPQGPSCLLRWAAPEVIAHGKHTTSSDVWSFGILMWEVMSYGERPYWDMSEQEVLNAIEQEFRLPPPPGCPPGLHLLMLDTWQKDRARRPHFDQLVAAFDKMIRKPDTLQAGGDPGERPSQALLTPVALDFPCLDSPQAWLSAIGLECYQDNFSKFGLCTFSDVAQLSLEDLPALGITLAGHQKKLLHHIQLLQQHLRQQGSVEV
Calls of active or inactive are those of the source.
Answer with one of the outcomes given here: True = active, False = inactive

// query Dear colleague, could you share the recorded outcome for Cc1cc(C(=O)NOCCO)c(Nc2ccc(I)cc2F)n(C)c1=O [AZD-8330] when you have a moment?
// result False

// query Dear colleague, could you share the recorded outcome for N#CC1(c2ccc(NC(=O)c3cccnc3NCc3ccncc3)cc2)CCCC1 [RIVOCERANIB] when you have a moment?
// result False

// query Dear colleague, could you share the recorded outcome for NC(=O)c1c(OCc2c(F)cc(Br)cc2F)nsc1NC(=O)NCCCCN1CCCC1 [OSI-632] when you have a moment?
// result True

Further cases:
// query Dear colleague, could you share the recorded outcome for "C[C@H]1CNCCCN1S(=O)(=O)c1cccc2cncc(F)c12" when you have a moment?
// result False

// query Dear colleague, could you share the recorded outcome for Cc1cnc(NC(=O)Nc2cc(Br)c(C)cc2OC[C@@H]2CNCCO2)cn1 [RABUSERTIB] when you have a moment?
// result False

// query Dear colleague, could you share the recorded outcome for "CCNC(=O)C#Cc1ccc2c(c1)NC(=O)/C2=C(\Nc1ccc(CN(C)C)cc1)c1ccccc1" when you have a moment?
// result False

// query Dear colleague, could you share the recorded outcome for "CC(=O)c1cnc2ccc(-c3cc(Cl)c(O)c(Cl)c3)nc2c1N[C@H]1CC[C@H](CN(C)C)CC1" when you have a moment?
// result True

// query Dear colleague, could you share the recorded outcome for C[C@@H](N)c1ccc(C(=O)Nc2ccnc3[nH]ccc23)cc1 [Y-39983] when you have a moment?
// result False

----------
# EXPERIMENTAL_TARGET: LIM domain kinase 2 (Homo sapiens); note: in the data inactive means no Kd found up to 30 µM
# Sequence (P53671 whole entry, the tested form may be a part): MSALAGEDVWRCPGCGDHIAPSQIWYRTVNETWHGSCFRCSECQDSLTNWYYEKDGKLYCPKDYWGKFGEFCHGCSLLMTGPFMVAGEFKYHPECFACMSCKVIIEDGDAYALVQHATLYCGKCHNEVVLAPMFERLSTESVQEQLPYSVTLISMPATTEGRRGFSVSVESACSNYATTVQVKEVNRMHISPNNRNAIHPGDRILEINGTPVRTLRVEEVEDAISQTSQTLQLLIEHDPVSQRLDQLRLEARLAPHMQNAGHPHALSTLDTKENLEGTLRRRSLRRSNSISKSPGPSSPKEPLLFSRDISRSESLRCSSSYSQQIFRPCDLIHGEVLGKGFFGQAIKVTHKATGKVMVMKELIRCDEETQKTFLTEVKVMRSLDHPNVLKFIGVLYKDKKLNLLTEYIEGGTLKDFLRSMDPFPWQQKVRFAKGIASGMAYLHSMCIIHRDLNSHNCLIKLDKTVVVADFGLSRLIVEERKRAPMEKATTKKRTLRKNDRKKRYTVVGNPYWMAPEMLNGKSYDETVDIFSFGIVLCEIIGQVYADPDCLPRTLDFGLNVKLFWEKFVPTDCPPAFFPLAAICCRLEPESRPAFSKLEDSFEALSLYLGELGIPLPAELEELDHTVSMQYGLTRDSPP
Where a name gives a salt, the structure may show the parent alone. Active and inactive are the calls of the source.
Answer with one of the outcomes given here: active, inactive

Consider the worked cases shown below.
// query Dear colleague, could you share the recorded outcome for "C=CC(=O)N1CCC[C@H](n2c(=O)n(-c3ccc(Oc4ccccc4)cc3)c3c(N)ncnc32)C1" when you have a moment?
// result inactive

// query Dear colleague, could you share the recorded outcome for Cn1cnc2c(F)c(Nc3ccc(Br)cc3F)c(C(=O)NOCCO)cc21 [BINIMETINIB] when you have a moment?
// result inactive

// query Dear colleague, could you share the recorded outcome for NC(=O)Nc1cc(-c2cccc(F)c2)sc1C(=O)N[C@H]1CCCNC1 [AZD-7762] when you have a moment?
// result inactive

// query Dear colleague, could you share the recorded outcome for Cn1ncc(Cl)c1-c1cc(C(=O)N[C@H](CN)Cc2ccc(F)c(F)c2)oc1Cl [UPROSERTIB] when you have a moment?
// result inactive

// query Dear colleague, could you share the recorded outcome for O=C(Nc1nc2cccc(-c3ccc(CN4CCS(=O)(=O)CC4)cc3)n2n1)C1CC1 [FILGOTINIB] when you have a moment?
// result inactive

Further cases:
// query Dear colleague, could you share the recorded outcome for "C[C@@H](Oc1cc(C(=O)Nc2ccc(C(=O)N3CCN(C)CC3)cc2)nnc1N)c1c(Cl)ccc(F)c1Cl" when you have a moment?
// result inactive

// query Dear colleague, could you share the recorded outcome for CCS(=O)(=O)N1CCN(c2ccc(Nc3ncc(C(N)=O)c(NC4CC4)n3)cc2)CC1 [Cerdulatinib Hydrochloride] when you have a moment?
// result inactive

// query Dear colleague, could you share the recorded outcome for CCn1cc(-c2ccnc3[nH]c(-c4cccc(CN(C)C)c4)cc23)c(-c2ccc(NC(=O)N(C)C)cc2)n1 [GSK-1070916] when you have a moment?
// result inactive

// query Dear colleague, could you share the recorded outcome for COc1cc(Nc2ncc3c(n2)-c2ccc(Cl)cc2C(c2c(F)cccc2OC)=NC3)ccc1C(=O)O [ALISERTIB] when you have a moment?
// result inactive

// query Dear colleague, could you share the recorded outcome for Cc1nc(NC(=O)N2CCC[C@H]2C(N)=O)sc1-c1ccnc(C(C)(C)C(F)(F)F)c1 [ALPELISIB] when you have a moment?
// result inactive

----------
# EXPERIMENTAL_TARGET: Tyrosine-protein kinase Yes (Homo sapiens, UniProt P07947); note: in the data inactive means no Kd found up to 30 µM
# Sequence (P07947 whole entry): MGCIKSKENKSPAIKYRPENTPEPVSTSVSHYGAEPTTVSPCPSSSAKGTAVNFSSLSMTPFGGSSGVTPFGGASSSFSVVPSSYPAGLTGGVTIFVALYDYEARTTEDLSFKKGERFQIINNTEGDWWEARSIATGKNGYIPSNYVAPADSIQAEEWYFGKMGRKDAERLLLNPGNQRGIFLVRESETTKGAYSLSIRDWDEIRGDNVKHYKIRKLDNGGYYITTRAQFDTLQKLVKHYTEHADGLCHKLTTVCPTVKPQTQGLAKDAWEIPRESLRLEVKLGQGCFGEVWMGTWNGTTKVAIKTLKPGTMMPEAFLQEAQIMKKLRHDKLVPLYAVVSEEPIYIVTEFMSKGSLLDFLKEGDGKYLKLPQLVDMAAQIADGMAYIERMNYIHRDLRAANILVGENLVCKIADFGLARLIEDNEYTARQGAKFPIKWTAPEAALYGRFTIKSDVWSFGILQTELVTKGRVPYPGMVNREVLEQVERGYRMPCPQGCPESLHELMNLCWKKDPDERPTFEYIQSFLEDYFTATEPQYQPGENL
Counter-ions that a name gives are not always drawn. Calls of active or inactive are those of the source.
Answer with one of the outcomes given here: true for active, false for inactive

// query Dear colleague, could you share the recorded outcome for "CO[C@H]1C[C@@H]2CC[C@@H](C)[C@@](O)(O2)C(=O)C(=O)N2CCCC[C@H]2C(=O)O[C@H]([C@H](C)C[C@@H]2CC[C@@H](O)[C@H](OC)C2)CC(=O)[C@H](C)/C=C(\C)[C@@H](O)[C@@H](OC)C(=O)[C@H](C)C[C@H](C)/C=C/C=C/C=C/1C" when you have a moment?
// result false

// query Dear colleague, could you share the recorded outcome for "COc1cc(Nc2ncc3c(n2)-c2ccc(Cl)cc2C(c2c(F)cccc2OC)=NC3)ccc1C(=O)O" when you have a moment?
// result false

// query Dear colleague, could you share the recorded outcome for "C#Cc1cccc(Nc2ncnc3cc(OC)c(OCCCCCCC(=O)NO)cc23)c1" when you have a moment?
// result false

// query Dear colleague, could you share the recorded outcome for "Cn1cc(-c2cnc3ccc4ccc(CS(=O)(=O)NCc5ccccn5)cc4c(=O)c3c2)cn1" when you have a moment?
// result false

// query Dear colleague, could you share the recorded outcome for "CCS(=O)(=O)c1cccc(-c2cc(C(=O)NC3CCN(C)CC3)c(C)c3[nH]c4ncc(C)cc4c23)c1" when you have a moment?
// result true

Further cases:
// query Dear colleague, could you share the recorded outcome for "Cc1cnc(NC(=O)Nc2cc(Br)c(C)cc2OC[C@@H]2CNCCO2)cn1" when you have a moment?
// result false

// query Dear colleague, could you share the recorded outcome for "COCC(=O)NC/C=C/c1ccc2ncnc(Nc3ccc(Oc4ccc(C)nc4)c(C)c3)c2c1" when you have a moment?
// result false

// query Dear colleague, could you share the recorded outcome for CCS(=O)(=O)N1CCN(c2ccc(Nc3ncc(C(N)=O)c(NC4CC4)n3)cc2)CC1 [Cerdulatinib Hydrochloride] when you have a moment?
// result false
